Kindly supply the reported inhibition values for the records listed here.
Molecular target: Solute carrier family 2, facilitated glucose transporter member 1 (Homo sapiens) (UniProt P11166)
Sequence (P11166 whole entry): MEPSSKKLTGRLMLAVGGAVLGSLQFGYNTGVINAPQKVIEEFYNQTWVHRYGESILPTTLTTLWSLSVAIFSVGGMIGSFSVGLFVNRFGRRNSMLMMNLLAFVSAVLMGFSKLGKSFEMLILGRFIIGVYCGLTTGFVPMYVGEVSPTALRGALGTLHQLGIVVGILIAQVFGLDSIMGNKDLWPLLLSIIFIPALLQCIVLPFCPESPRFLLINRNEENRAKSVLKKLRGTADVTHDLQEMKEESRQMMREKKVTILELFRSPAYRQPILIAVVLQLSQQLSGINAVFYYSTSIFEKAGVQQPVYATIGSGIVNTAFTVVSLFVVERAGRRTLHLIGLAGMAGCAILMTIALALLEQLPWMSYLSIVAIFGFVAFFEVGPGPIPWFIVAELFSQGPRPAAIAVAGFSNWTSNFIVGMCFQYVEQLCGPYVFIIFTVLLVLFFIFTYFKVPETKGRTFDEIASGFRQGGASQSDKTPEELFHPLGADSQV
Assay: ST_JUDE_LEISH: Cytotoxicity at 2uM final concentration against transgenic Leishmania Mexicana promastigotes LmGLUT1 that are glucose transport deficient and complemented with the human glucose transporter GLUT1. Activity is measured by DNA content using SYBR green in vitro
Type: functional
One number for each entry, in %.

Illustrative cases are given below, each with its answer.
>>> data_value("CCCCCNC(=N)N/N=C/c1c[nH]c2ccc(OC)cc12")
1.71
>>> data_value("OCCN1CCN(Cc2ccc(-c3ccc(-c4nc5ccccc5[nH]4)cc3)cc2)CC1")
12.1
>>> data_value("COc1ccc2c(NN=Cc3ccccc3Cl)ccnc2c1")
3.65
>>> data_value("CCCCCCCN1CC[C@@H](CCCc2ccnc3ccc(OC)cc23)[C@@H](CNC)C1")
0.83
>>> data_value("CCCCNc1cc(NCCCC)c2c(n1)[nH]c1ccccc12")
18.4

For the 3 compounds below, give their inhibition values.
1. COc1cccc2cc(C(=O)N[C@@H](CC(C)C)C(=O)N[C@H](C=NNC(=O)OC(C)(C)C)CC(C)C)oc12
2. C=CCn1c(SCc2c(C)noc2C)nc2scc(-c3cccs3)c2c1=O
3. Cn1cnc(CCNC(=O)c2cccc(-c3cccc(-c4nc5cc(C(F)(F)F)ccc5[nH]4)c3)c2)c1

Result ::
2.6
0.98
-1.68

For each listed entry, give its inhibition.
1. COC(=O)Cn1c(C2CCN(CC3CCC(NC(=O)/C=C/c4ccc(Cl)c(Cl)c4)CC3)CC2)nc2ccccc21 (stereo unspecified)
2. Cc1cccc2nc(-c3cccc(-c4ccc(C(=O)NCCc5ccc(O)c(=O)[nH]5)cc4)c3)[nH]c12
3. O=C(NCCCCN1CCN(CC=Cc2ccccc2)CC1)c1ccc(NC(=O)c2cc(Cl)cc(Cl)c2)cc1

Result ::
1.86
2.16
-0.99
